Source listed as patent US9539249B2.

procedure.text: Tissue distribution of [3H]INT131 after intraperitoneal injection (penetration of the intact BBB)
Type: in vivo, Sprague-Dawley rats
assay.setup: Sprague-Dawley, liver, intraperitoneal; 1 h after ~50 mg/kg ip, rat; read-out: INT131 concentration in Liver
observable: concentration at 1 h (ng/g)

[[record]]
smiles_input = "O=S(=O)(Nc1cc(Cl)c(Oc2cnc3ccccc3c2)c(Cl)c1)c1ccc(Cl)cc1Cl"
meas_value = 24400


----------
procedure.text: Tissue distribution of [3H]INT131 after intraperitoneal injection (penetration of the intact BBB)
Assay type: in vivo, Sprague-Dawley rats
assay.setup: Sprague-Dawley, kidney, intraperitoneal; 24 h after ~50 mg/kg ip, rat; read-out: INT131 concentration in Kidney
observable: concentration at 24 h (ng/g)

[[record]]
smiles_input = "O=S(=O)(Nc1cc(Cl)c(Oc2cnc3ccccc3c2)c(Cl)c1)c1ccc(Cl)cc1Cl"
meas_value = 15400


----------
procedure.text: Tissue distribution of [3H]INT131 after intraperitoneal injection (penetration of the intact BBB)
Format: in vivo, Sprague-Dawley rats
assay.setup: Sprague-Dawley, blood, intraperitoneal; 24 h after ~50 mg/kg ip, rat; read-out: INT131 concentration in Blood
observable: concentration at 24 h

[[record]]
molecule = "O=S(=O)(Nc1cc(Cl)c(Oc2cnc3ccccc3c2)c(Cl)c1)c1ccc(Cl)cc1Cl [INT131]"
meas_value = "17900 ng/g"

